Tested on: human dermal fibroblasts
Experiment: Senolytic activity study: SA-beta-galactosidase flow cytometry on a mixed 70% normal / 30% senescent cell population
Type: cell-based
Details: concentration not given; 72 hours; human dermal fibroblasts
Description: Normal and senescent cell populations were obtained from normal human dermal fibroblasts. […] Both normal and senescent populations were mixed into a 70% normal and 30% senescent cell population and represented the treatment population. […] Afterward, senescence-associated beta-galactosidase was visualized - a well-known senescence marker- in the cells to quantify the senescence levels using flow cytometry. […]
VALUE TYPE: Senolytic effect

- O=c1c(-c2ccc(O)cc2)coc2cc(O[C@@H]3O[C@H](CO)[C@@H](O)[C@H](O)[C@H]3O)ccc12: yes
- COc1cc2c(=O)c(-c3ccc(O)cc3)coc2cc1O: yes
- O=C1CC(c2ccc(O)c(O)c2)Oc2cc(O)cc(O)c21 (centres unmarked): yes
- COc1cc(C2CC(=O)c3c(O)cc(O)cc3O2)ccc1O (centres unmarked): yes
- O=C1CC(c2ccccc2)Oc2cc(O)ccc21 (centres unmarked): yes
- COc1c(-c2ccccc2)oc2ccccc2c1=O: yes
- COc1cc(-c2coc3cc4c(c(OC)c3c2=O)OCO4)cc(OC)c1OC: yes

Now look at this entry.
Query: Which Senolytic effect is listed for COc1cc2oc(-c3ccccc3)cc(=O)c2c(OC)c1OC ?
Reply: yes

----------
Tested on: human dermal fibroblasts
Test: Senolytic activity study: SA-beta-galactosidase flow cytometry on a mixed 70% normal / 30% senescent cell population
Type: cell-based
Conditions: 25 µM; 72 hours; 70% normal and 30% senescent human dermal fibroblasts
From the text: Normal and senescent cell populations were obtained from normal human dermal fibroblasts. […] Both normal and senescent populations were mixed into a 70% normal and 30% senescent cell population and represented the treatment population. […] Afterward, senescence-associated beta-galactosidase was visualized - a well-known senescence marker- in the cells to quantify the senescence levels using flow cytometry. […]
VALUE TYPE: Senolytic effect

Use the examples below as a reference point.
* COc1cc2oc(-c3ccccc3)cc(=O)c2c(O)c1O | yes
* O=c1cc(-c2ccc(O)cc2)oc2c(-c3c(O)cc(O)c4c(=O)cc(-c5ccc(O)cc5)oc34)c(O)cc(O)c12 | yes
* O=c1c(O)c(-c2ccc(O)cc2)oc2cc(O)cc(O)c12 | yes
* COc1ccc(-c2cc(=O)c3c(OC)c(OC)c(OC)cc3o2)cc1 | yes

Now look at this entry.
Query: Which Senolytic effect is listed for COc1cc(-c2oc3cc(O)ccc3c(=O)c2O)cc(OC)c1OC ?
Reply: yes
